Biological target: Nox2 (Homo sapiens, UniProt P04839)
Sequence (P04839 2-570 limits assumed, species assumed): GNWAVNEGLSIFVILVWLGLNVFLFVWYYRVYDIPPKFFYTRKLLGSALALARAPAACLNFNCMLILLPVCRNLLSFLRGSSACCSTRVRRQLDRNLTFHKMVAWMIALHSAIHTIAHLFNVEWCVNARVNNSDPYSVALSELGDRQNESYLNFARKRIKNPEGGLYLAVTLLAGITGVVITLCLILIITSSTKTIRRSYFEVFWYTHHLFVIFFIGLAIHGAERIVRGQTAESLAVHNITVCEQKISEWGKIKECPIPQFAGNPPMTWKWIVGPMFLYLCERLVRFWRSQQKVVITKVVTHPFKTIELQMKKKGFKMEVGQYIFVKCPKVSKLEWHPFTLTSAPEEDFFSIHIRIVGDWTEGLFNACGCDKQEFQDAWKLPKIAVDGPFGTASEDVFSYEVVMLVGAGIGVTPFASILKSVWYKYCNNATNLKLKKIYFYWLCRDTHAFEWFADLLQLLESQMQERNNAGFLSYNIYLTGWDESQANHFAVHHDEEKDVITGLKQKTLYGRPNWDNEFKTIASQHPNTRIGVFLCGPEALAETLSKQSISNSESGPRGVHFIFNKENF
Sequence (P13498 2-195 partner limits assumed, species assumed): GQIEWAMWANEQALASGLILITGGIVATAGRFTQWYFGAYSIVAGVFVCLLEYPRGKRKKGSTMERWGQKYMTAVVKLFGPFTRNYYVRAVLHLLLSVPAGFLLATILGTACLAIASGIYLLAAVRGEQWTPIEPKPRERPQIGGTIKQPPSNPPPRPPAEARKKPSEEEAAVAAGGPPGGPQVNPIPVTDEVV
Assay: Amplex Red assay of ROS generation in whole COS-Nox2 cells
Type: cell-based
pIC50: −log10 of the molar value.

molecule	assayed system	pIC50
C=C(C)C[C@@H]1N[C@H]2CC(C)(C)[C@@H]1c1c(-c3cccnc3)cccc12 [Compound 12d]	Nox2 (Homo sapiens, UniProt P04839)	< 4.00

Source: paper PMC3897123
